- Condition Summary: 298.15 K; 101 kPa; Liquid; Concentric cylinders viscometry
Consider the following compounds; for each one, report its viscosity.
# number only, unit mPa·s dropped from output

Q: Please look up its viscosity: CCCCCCCCCCCCCCCC
Result: 3.035

Q: Proceed to CCCO
Result: 1.926

Q: Proceed to CCCCCCCC/C=C\CCCCCCCC(=O)OCC [ethyl (Z)-9-octadeceneoate]
Result: 5.674

Q: Proceed to CCCCO
Result: 2.531

* * *

- Condition Summary: 298.15 K; 101 kPa; Liquid; Vibrating tube method
Metric: mass density (kg/m3)
# number only, unit kg/m3 dropped from output

Q: Please look up its mass density: CCCO
Result: 799.93

Q: Proceed to CCCCCCCC/C=C\CCCCCCCC(=O)OCC [ethyl (Z)-9-octadeceneoate]
Result: 865.23

Q: Proceed to CCCCCCCCCCCCCCCC
Result: 769.87

Q: Proceed to CCCCO
Result: 805.98
